The reported numbers originate from PubChem BioAssay AID1159580.

- Assay method text: chemical genetic growth profiling, strain panel (AID 1159580);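 note: tested at 20 µM; growth read once vehicle control cultures reached saturation at 30 °C; 1 = growth at the plate median or of vehicle wells; lower values mean less growth of the strain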
- Protocol conditions: S. cerevisiae deletion strains, growth OD, locus YMR058W, strain fet3, hits give low values
The campaign covered roughly 5,500 compounds. About 2,000 (36%) were called active. Not shown: some 18% with an inconclusive outcome. Some of the results follow.
normalized growth less than 1 is 1; normalized growth greater than or equal to 1 is -1.

See these solved cases before continuing.
{"columns": ["Smiles data", "Class name"],
 "data": [
  ["CN(C)CCOc1ccc(/C(=C(/CCCl)c2ccccc2)c2ccccc2)cc1", 1],
  ["Oc1c(I)cc(Cl)c2cccnc12", 1],
  ["O=[N+]([O-])c1ccc(O)c([N+](=O)[O-])c1", 1],
  ["Oc1ccc(Cl)c2cccnc12", 1]
]}

Proceed to the following item.
Qu. # check: normalized growth < 1 for O=[N+]([O-])c1cc(O)c(O)c([N+](=O)[O-])c1
Ans. -1

====

- Assay method text: chemical genetic growth profiling, strain panel (AID 1159580);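 note: tested at 20 µM; growth read once vehicle control cultures reached saturation at 30 °C; 1 = growth at the plate median or of vehicle wells; lower values mean less growth of the strain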
- Protocol conditions: S. cerevisiae deletion strains, growth OD, locus YBR021W, strain FUR4, hits give low values
In all, about 5,500 compounds went through this assay and about 2,000 (36%) were called active. About 18% were inconclusive and are not listed. Some of the results follow.
Attribute: normalized growth

{"columns": ["Compound", "Endpoint", "Measurement"],
 "data": [
  ["O=[N+]([O-])c1ccc(O)c([N+](=O)[O-])c1", "normalized growth", "0.647 (active)"],
  ["O=[N+]([O-])c1cc([As](=O)(O)O)ccc1O", "normalized growth", "1.01 (inactive)"],
  ["O=[N+]([O-])c1cc(O)c(O)c([N+](=O)[O-])c1", "normalized growth", "0.953 (inactive)"]
]}

Qu. Note normalized growth for the compound shown: Nc1ccc(S(=O)(=O)Nc2ccc(Cl)nn2)cc1
Ans. 0.977 (inactive)

Qu. Input CCCC(C)C1(CC)C(=O)N=C(S)NC1=O (configuration not stated) , output reported normalized growth.
Ans. 1.01 (inactive)

Qu. Determine its reported normalized growth: Nc1ccc(S(=O)(=O)Nc2ccccn2)cc1
Ans. 1.04 (inactive)

Qu. Specify reported normalized growth for the compound shown: C=CCC1(C(C)CCC)C(=O)N=C(S)NC1=O (configuration not stated)
Ans. 0.982 (inactive)

====

Listed next: entries and their corresponding normalized growth.
- Assay method text: chemical genetic growth profiling, strain panel (AID 1159580);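 note: tested at 20 µM; growth read once vehicle control cultures reached saturation at 30 °C; 1 = growth at the plate median or of vehicle wells; lower values mean less growth of the strain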
- Protocol conditions: S. cerevisiae deletion strains, growth OD, locus YIR030C, strain dcg1, hits give low values
The whole screen tested about 5,500 compounds, of which about 2,000 (36%) were called active. Inconclusive results (about 18%) are left out. This is one part of the list.
Respond numerically, and do not add a unit to the figure.

{"columns": ["Compound", "normalized growth"],
 "data": [
  ["CCCC(C)C1(CC)C(=O)NC(=O)NC1=O (stereo not given)", 1.02]
]}

Qu. Give reported normalized growth value for CN[C@H](CC(=O)O)C(=O)O
Ans. 0.983

Qu. Look up and report measured normalized growth for this entry: O=C(O)CF
Ans. 0.991

Qu. Check the records and state normalized growth for CC1(C)C(O)CC(O)C2(C)C1CC(=O)C1(C)C2CCC2(C)C(C(=O)O)OC(=O)C3OC321 (stereo not given)
Ans. 0.999

Qu. State its normalized growth: C=CCC1(C(C)CCC)C(=O)N=C(S)NC1=O (stereo not given)
Ans. 0.978
